molecular target: hGLP-1R (Homo sapiens); test: Functional cAMP activation in the presence of 0.1% casein (no HSA); format: cell-based; settings: in the presence of 0.1% casein (no HSA); geometric mean; read-out: Relative cAMP EC50, hGLP-1R;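 also: intracellular cAMP rise after 30 min at 37 °C read by HTRF, normalized between buffer only (0%) and maximal control ligand (100%), four-parameter variable-slope fit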
Sequence (P43220 24-463): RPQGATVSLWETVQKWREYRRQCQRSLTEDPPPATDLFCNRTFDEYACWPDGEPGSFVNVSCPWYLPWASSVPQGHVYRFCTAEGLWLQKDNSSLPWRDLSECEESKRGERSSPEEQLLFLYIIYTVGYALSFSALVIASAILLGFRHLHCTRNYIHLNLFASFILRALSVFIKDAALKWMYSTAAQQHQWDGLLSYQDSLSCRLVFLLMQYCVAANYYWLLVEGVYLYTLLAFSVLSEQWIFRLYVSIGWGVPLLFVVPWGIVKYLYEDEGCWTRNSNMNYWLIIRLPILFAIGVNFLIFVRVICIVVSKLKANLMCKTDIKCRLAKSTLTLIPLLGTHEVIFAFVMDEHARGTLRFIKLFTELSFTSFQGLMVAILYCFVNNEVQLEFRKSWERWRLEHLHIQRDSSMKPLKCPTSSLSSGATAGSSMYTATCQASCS
Starred links: 1 amine or outer side, 2 acyl side, 3 side chain; linkers in the order of their positions; H or OH if unused. Non-standard residues stand in square brackets, D forms with d. Groups on a side chain read outwards from the residue. No end group written: not given here. *: point of attachment. C20 diacid = O=C(O)CCCCCCCCCCCCCCCCCCC(=O)*; C18 diacid = O=C(O)CCCCCCCCCCCCCCCCC(=O)*; αMePhe(2-F) = C[C@](N)(Cc1ccccc1F)C(=O)O; γGlu = O=C(O)[C@H](CCC(=O)[*:2])N[*:1]; αMe4Pal = C[C@](N)(Cc1ccncc1)C(=O)O; αMeY = C[C@](N)(Cc1ccc(O)cc1)C(=O)O; 4Pal = N[C@@H](Cc1ccncc1)C(=O)O; αMeL = CC(C)C[C@](C)(N)C(=O)O; Orn = NCCC[C@H](N)C(=O)O; AEEA = NCCOCCOCC(=O)O; Aib = CC(C)(N)C(=O)O
So I've got a bunch of substances here, and I need their pEC50 values.
Give bare numbers, as −log10 of the molar value.

H-Y[Aib]QGTFTSD[4Pal]SQ[αMeL]LD[Orn]K([dE-γGlu-C18 diacid])AQ[αMe4Pal]AFIE[αMeY]LIAGGPSSGAPPPSGSEE-NH2 [Example 1074]; 9.10
Y[Aib]QGT[αMePhe(2-F)]TSDYSILLDAQAAK([AEEA-γGlu-C20 diacid])EFIEYLIEGGPSSGEPPPSEG-NH2 [Example 351]; 9.17

Qu. Query (substance): Y[Aib]QGTFTSD[4Pal]SK[αMeL]LDKK([AEEA-γGlu-C20 diacid])AQ[Aib]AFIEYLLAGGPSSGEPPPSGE-NH2 [Example 28] ; field requested: pEC50
Ans. 8.43

----------
Kindly supply the reported EC50 values for the records listed here.
molecular target: human GcgR (Homo sapiens); test: Functional cAMP activity in the presence of 1% HSA; assay type: cell-based; settings: read-out: cAMP Rel EC50, hGcgR
Sequence (P47871 26-477): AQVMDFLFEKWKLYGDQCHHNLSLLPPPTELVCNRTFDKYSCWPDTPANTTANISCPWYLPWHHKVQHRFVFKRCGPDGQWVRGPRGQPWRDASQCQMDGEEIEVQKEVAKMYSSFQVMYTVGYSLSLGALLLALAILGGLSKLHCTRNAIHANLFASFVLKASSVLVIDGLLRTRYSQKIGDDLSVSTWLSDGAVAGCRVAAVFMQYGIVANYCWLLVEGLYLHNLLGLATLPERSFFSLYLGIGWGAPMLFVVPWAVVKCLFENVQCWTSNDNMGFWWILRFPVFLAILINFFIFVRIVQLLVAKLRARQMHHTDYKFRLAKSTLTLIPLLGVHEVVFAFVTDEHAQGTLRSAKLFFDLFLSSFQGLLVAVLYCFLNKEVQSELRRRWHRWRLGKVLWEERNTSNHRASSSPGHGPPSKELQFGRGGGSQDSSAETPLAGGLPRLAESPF
Starred links: 1 amine or outer side, 2 acyl side, 3 side chain; linkers in the order of their positions; H or OH if unused. Non-standard residues stand in square brackets, D forms with d. Groups on a side chain read outwards from the residue. *: point of attachment. C18 diacid = O=C(O)CCCCCCCCCCCCCCCCC(=O)*; αMePhe(2-F) = C[C@](N)(Cc1ccccc1F)C(=O)O; γGlu = O=C(O)[C@H](CCC(=O)[*:2])N[*:1]; αMe4Pal = C[C@](N)(Cc1ccncc1)C(=O)O; αMeY = C[C@](N)(Cc1ccc(O)cc1)C(=O)O; 4Pal = N[C@@H](Cc1ccncc1)C(=O)O; αMeL = CC(C)C[C@](C)(N)C(=O)O; αMeS = C[C@](N)(CO)C(=O)O; Orn = NCCC[C@H](N)C(=O)O; AEEA = NCCOCCOCC(=O)O; Aib = CC(C)(N)C(=O)O
Give bare numbers, in nM.

Before answering, review these 2 worked examples.
H-Y[Aib]QGT[αMePhe(2-F)]TSD[4Pal][αMeS]I[αMeL]LD[Orn]K([γGlu-γGlu-C18 diacid])AA[Aib]EFI[dE][αMeY]LIEGGPSSGAPPPSGGGE-NH2 [Example 747]; 169
H-Y[Aib]QGT[αMePhe(2-F)]TSD[4Pal][αMeS]I[αMeL]LD[Orn]K([γGlu-γGlu-C18 diacid])AQ[Aib][Orn]FI[dE][αMeY]LQEGGPSSGEPPPEGSEE-NH2 [Example 585]; 436

Qu. Report EC50 for H-Y[Aib]QGTFTSDFSK[αMeL]LDKK([AEEA-γGlu-C18 diacid])AQ[Aib]AFIE[αMe4Pal]LIE[Aib]GPSSGAPPPSGS-NH2 [Example 912] please.
Ans. 955

----------
molecular target: hGLP-1R (Homo sapiens); experiment: Functional cAMP activity in the presence of 1% HSA; type: cell-based; conditions: read-out: cAMP Rel EC50, hGLP-1R
Starred links: 1 amine or outer side, 2 acyl side, 3 side chain; linkers in the order of their positions; H or OH if unused. Non-standard residues stand in square brackets, D forms with d. Groups on a side chain read outwards from the residue. No end group written: not given here. *: point of attachment. C20 diacid = O=C(O)CCCCCCCCCCCCCCCCCCC(=O)*; C18 diacid = O=C(O)CCCCCCCCCCCCCCCCC(=O)*; αMePhe(2-F) = C[C@](N)(Cc1ccccc1F)C(=O)O; γGlu = O=C(O)[C@H](CCC(=O)[*:2])N[*:1]; αMe4Pal = C[C@](N)(Cc1ccncc1)C(=O)O; αMeY = C[C@](N)(Cc1ccc(O)cc1)C(=O)O; Hyp = O=C(O)[C@@H]1C[C@@H](O)CN1; 4Pal = N[C@@H](Cc1ccncc1)C(=O)O; αMeL = CC(C)C[C@](C)(N)C(=O)O; αMeS = C[C@](N)(CO)C(=O)O; Orn = NCCC[C@H](N)C(=O)O; AEEA = NCCOCCOCC(=O)O; Aib = CC(C)(N)C(=O)O
MEASURE_NAME: EC50 (nM)
Numbers only, in nM.

H-Y[Aib]QGTFTSDFS[Orn][αMeL]LDKK([AEEA-γGlu-C18 diacid])AQ[Aib]AFIEYLLAGGPSSGAPPPSGT-NH2 [Example 87]; 290

Count: 7. Required value per item: EC50.
1. H-Y[Aib]QGTFTSDFSK[αMeL]LDKK([AEEA-γGlu-C20 diacid])AQ[Aib]AFIEWLLAGGPSSGEPPPSGE-NH2 [Example 21]
2. H-Y[Aib]QGTFTSD[4Pal]S[Orn][αMeL]LDKK([γGlu-γGlu-C18 diacid])AQ[αMe4Pal]AFIEYLIAGGPSSGAPPPSGSE-NH2 [Example 1009]
3. Y[Aib]QGT[αMePhe(2-F)]TSD[4Pal][αMeS]ILLD[Orn]K([γGlu-γGlu-C18 diacid])AQ[Aib][Orn]FI[dE][αMeY]LQEGGPSSGEPPPEGAE-NH2 [Example 546]
4. H-Y[Aib]QGTFTSDFS[Orn][αMeL]LDKK([AEEA-γGlu-C18 diacid])AQ[Aib]AFIEYLLEGG[Hyp]SSGAPPPGGS-NH2 [Example 234]
5. H-Y[Aib]QGTFTSD[4Pal]SQ[αMeL]LDKK([Glu-γGlu-C18 diacid])AQ[αMe4Pal]AFIEYLIAGGPSSGAPPPSGEEE-NH2 [Example 1089]
6. H-Y[Aib]QGTFTSD[4Pal]SR[αMeL]LDKK([AEEA-AEEA-γGlu-C18 diacid])AQ[αMe4Pal]AFIEYLIE[Aib]GPSSGAPPPSGS-NH2 [Example 815]
7. H-Y[Aib]QGTFTSDFS[Orn][αMeL]LDKK([AEEA-γGlu-C18 diacid])AQ[Aib]AFIEWLLEGGHSSGAPPPEGS-NH2 [Example 126]

Ans.
324
174
34.4
604
449
342
838
